Measurement Description: Acute toxicity
Type: in vivo, mice (ddy)
Conditions: mouse, in vivo, ip; read-out: (C.I.)* = (LD50/ED50)/[(LD50/ED50) of MMC1]
selectivity ratio by entry:

- Molecule: "CO[C@@]12[C@H](COC(N)=O)C3=C(C(=O)C(C)=C(NCCSSCCC(=O)NC[C@H](O)c4ccc(O)c(O)c4)C3=O)N1C[C@@H]1N[C@@H]12 [Compound 32]"
  Qualifier Sign: "="
  selectivity ratio: 1.56
- Molecule: "CC1=C(NCCSSCc2c[nH]c(=O)[nH]c2=O)C(=O)C2=C(C1=O)N1C[C@H]3[C@H](N3C)[C@]1(O)[C@H]2COC(N)=O (stereo partly drawn) [Compound 38]"
  Qualifier Sign: ">"
  selectivity ratio: 2.26
- Molecule: "CC1=C(NCCSSCCNC(=O)C(F)(F)F)C(=O)C2=C(C1=O)N1C[C@H]3[C@H](N3C)[C@]1(O)[C@H]2COC(N)=O (stereo partly drawn) [Compound 20]"
  Qualifier Sign: "="
  selectivity ratio: 0.93
